Where do these numbers come from? They come from ChEMBL document CHEMBL1158870.

A collection of molecules and their measured TGI
# EXPERIMENT_SUMMARY: Cytotoxicity against human Colon cancer cells by SRB assay
# Assay type: functional
# MEASUREMENT_CONTEXT: Cancer cell lines
Numeric only. Scale: µM

Take a look at these entries with their results.
INSERT INTO assay_data (molecule, measured_parameter, unit_symbol, recorded_number) VALUES
  ('COC(C)(C)[C@@H](O)[C@H]1C[C@H](C)[C@@]2(CC[C@]3(C)[C@@H]2CC[C@@H]2[C@@]4(C)CC[C@@H](OC(C)=O)C(C)(C)[C@@H]4C[C@@H](O[C@@H]4O[C@H](COC(C)=O)[C@@H](O)[C@H](O)[C@H]4O)[C@]23C)O1', 'TGI', 'µM', 6.9),
  ('CC(=O)OC[C@H]1O[C@@H](O[C@@H]2C[C@H]3C(C)(C)[C@H](OC(C)=O)CC[C@]3(C)[C@H]3CCC4=C([C@@H](C)C[C@@H](O)[C@H](O)C(C)(C)O)CC[C@@]4(C)[C@@]32C)[C@H](O)[C@@H](O)[C@@H]1O', 'TGI', 'µM', 30.2),
  ('CC(=O)OC[C@H]1O[C@@H](O[C@@H]2C[C@H]3C(C)(C)[C@H](OC(C)=O)CC[C@]3(C)[C@H]3CC[C@]45C[C@]4(CC[C@H]5[C@@H](C)C[C@@H](O)[C@@H]4OC4(C)C)[C@@]32C)[C@H](O)[C@@H](O)[C@@H]1O [CUMINGIANOSIDE E]', 'TGI', 'µM', 4.2),
  ('CC(=O)OC[C@H]1O[C@@H](O[C@@H]2C[C@H]3C(C)(C)[C@H](OC(C)=O)CC[C@]3(C)[C@H]3CC[C@@]45C[C@H](O)C[C@H](C)[C@@H]4CC=C5[C@@]32C)[C@H](O)[C@@H](O)[C@@H]1O', 'TGI', 'µM', 8.8),
  ('C=C(C=O)[C@H](C)[C@@H]1CC[C@]23C[C@]12CC[C@@H]1[C@@]2(C)CC[C@@H](OC(C)=O)C(C)(C)[C@@H]2C[C@@H](O[C@@H]2O[C@H](COC(C)=O)[C@@H](O)[C@H](O)[C@H]2O)[C@]13C [CUMINDYSODIDE A]', 'TGI', 'µM', 5);

Q: What does the data say about its TGI? Entry: CC(=O)OC[C@H]1O[C@@H](O[C@@H]2C[C@H]3C(C)(C)[C@H](OC(C)=O)CC[C@]3(C)[C@H]3CC[C@]45C[C@]4(CC[C@H]5[C@@H](C)C[C@@H](O)[C@H](O)C(C)(C)O)[C@@]32C)[C@H](O)[C@@H](O)[C@@H]1O [CUMINGIANOSIDE A]
Result: 13.9

Q: Record: COC(C)(C)[C@@H](O)[C@H](O)C[C@H](C)[C@@H]1CC[C@]23C[C@]12CC[C@@H]1[C@@]2(C)CC[C@@H](OC(C)=O)C(C)(C)[C@@H]2C[C@@H](O[C@@H]2O[C@H](COC(C)=O)[C@@H](O)[C@H](O)[C@H]2O)[C@]13C [CUMINGIANOSIDE C]
Result: 7.9

Q: Record: C=C1[C@@H](O)C[C@@]23CC[C@@H]4[C@@]5(C)CC[C@@H](OC(C)=O)C(C)(C)[C@@H]5C[C@@H](O[C@@H]5O[C@H](COC(C)=O)[C@@H](O)[C@H](O)[C@H]5O)[C@@]4(C)C2=CC[C@H]3[C@H]1C
Result: 11.3

Q: Record: COC(C)(C)[C@@H](O)[C@H](O)C[C@H](C)C1=C2CC[C@@H]3[C@@]4(C)CC[C@@H](OC(C)=O)C(C)(C)[C@@H]4C[C@@H](O[C@@H]4O[C@H](COC(C)=O)[C@@H](O)[C@H](O)[C@H]4O)[C@@]3(C)[C@]2(C)CC1
Result: 20.7

Q: Record: CC(=O)OC[C@H]1O[C@@H](O[C@@H]2C[C@H]3C(C)(C)[C@H](OC(C)=O)CC[C@]3(C)[C@H]3CC[C@@H]4[C@]5(CC[C@@]4(C)[C@@]32C)O[C@@H]([C@H](O)C(C)(C)O)C[C@@H]5C)[C@H](O)[C@@H](O)[C@@H]1O
Result: 12.3

Q: Record: C=C(C)[C@@H](O)[C@H](O)C[C@H](C)[C@@H]1CC[C@]2(C)C1=CC[C@@H]1[C@@]3(C)CC[C@@H](OC(C)=O)C(C)(C)[C@@H]3C[C@@H](O[C@@H]3O[C@H](COC(C)=O)[C@@H](O)[C@H](O)[C@H]3O)[C@]12C
Result: 5

Q: Record: C=C(C)[C@@H](O)[C@H](O)C[C@H](C)[C@@H]1CC[C@]23C[C@]12CC[C@@H]1[C@@]2(C)CC[C@@H](OC(C)=O)C(C)(C)[C@@H]2C[C@@H](O[C@@H]2O[C@H](COC(C)=O)[C@@H](O)[C@H](O)[C@H]2O)[C@]13C [CUMINGIANOSIDE D]
Result: 11

* * *

# System: CAKI-1
# EXPERIMENT_SUMMARY: Cytotoxicity against human Caki1 cells by SRB assay
# Assay type: functional
MEASURED_PARAMETER: GI50

Q: What does the data say about its GI50? Entry: C=C1[C@@H](O)C[C@@]23CC[C@@H]4[C@@]5(C)CC[C@@H](OC(C)=O)C(C)(C)[C@@H]5C[C@@H](O[C@@H]5O[C@H](COC(C)=O)[C@@H](O)[C@H](O)[C@H]5O)[C@@]4(C)C2=CC[C@H]3[C@H]1C
Result: 13.2 µM

Q: Record: C=C(C)[C@@H](O)[C@H](O)C[C@H](C)[C@@H]1CC[C@]2(C)C1=CC[C@@H]1[C@@]3(C)CC[C@@H](OC(C)=O)C(C)(C)[C@@H]3C[C@@H](O[C@@H]3O[C@H](COC(C)=O)[C@@H](O)[C@H](O)[C@H]3O)[C@]12C
Result: 2.63 µM

Q: Record: COC(C)(C)[C@@H](O)[C@H]1C[C@H](C)[C@@]2(CC[C@]3(C)[C@@H]2CC[C@@H]2[C@@]4(C)CC[C@@H](OC(C)=O)C(C)(C)[C@@H]4C[C@@H](O[C@@H]4O[C@H](COC(C)=O)[C@@H](O)[C@H](O)[C@H]4O)[C@]23C)O1
Result: 5.37 µM

Q: Record: CC(=O)OC[C@H]1O[C@@H](O[C@@H]2C[C@H]3C(C)(C)[C@H](OC(C)=O)CC[C@]3(C)[C@H]3CC[C@@H]4[C@]5(CC[C@@]4(C)[C@@]32C)O[C@@H]([C@H](O)C(C)(C)O)C[C@@H]5C)[C@H](O)[C@@H](O)[C@@H]1O
Result: 25.7 µM

* * *

A collection of compounds and their measured GI50
# Test system: SNB-19
# EXPERIMENT_SUMMARY: Cytotoxicity against human SNB19 cells by SRB assay
# Type: functional
In your response, put the unit directly after the numeric value.

INSERT INTO results (mol_smiles, subject_of_test, result) VALUES
  ('CC(=O)OC[C@H]1O[C@@H](O[C@@H]2C[C@H]3C(C)(C)[C@H](OC(C)=O)CC[C@]3(C)[C@H]3CC[C@@H]4[C@]5(CC[C@@]4(C)[C@@]32C)O[C@@H]([C@H](O)C(C)(C)O)C[C@@H]5C)[C@H](O)[C@@H](O)[C@@H]1O', 'SNB-19', '12.6 µM'),
  ('COC(C)(C)[C@@H](O)[C@H](O)C[C@H](C)C1=C2CC[C@@H]3[C@@]4(C)CC[C@@H](OC(C)=O)C(C)(C)[C@@H]4C[C@@H](O[C@@H]4O[C@H](COC(C)=O)[C@@H](O)[C@H](O)[C@H]4O)[C@@]3(C)[C@]2(C)CC1', 'SNB-19', '12.3 µM'),
  ('CC(=O)OC[C@H]1O[C@@H](O[C@@H]2C[C@H]3C(C)(C)[C@H](OC(C)=O)CC[C@]3(C)[C@H]3CC[C@@]45C[C@H](O)C[C@H](C)[C@@H]4CC=C5[C@@]32C)[C@H](O)[C@@H](O)[C@@H]1O', 'SNB-19', '3.89 µM');

Q: What does the data say about its GI50? Entry: CC(=O)OC[C@H]1O[C@@H](O[C@@H]2C[C@H]3C(C)(C)[C@H](OC(C)=O)CC[C@]3(C)[C@H]3CCC4=C([C@@H](C)C[C@@H](O)[C@H](O)C(C)(C)O)CC[C@@]4(C)[C@@]32C)[C@H](O)[C@@H](O)[C@@H]1O
Result: 14.5 µM

Q: Record: C=C1[C@@H](O)C[C@@]23CC[C@@H]4[C@@]5(C)CC[C@@H](OC(C)=O)C(C)(C)[C@@H]5C[C@@H](O[C@@H]5O[C@H](COC(C)=O)[C@@H](O)[C@H](O)[C@H]5O)[C@@]4(C)C2=CC[C@H]3[C@H]1C
Result: 5.5 µM

Q: Record: C=C(C)[C@@H](O)[C@H](O)C[C@H](C)[C@@H]1CC[C@]2(C)C1=CC[C@@H]1[C@@]3(C)CC[C@@H](OC(C)=O)C(C)(C)[C@@H]3C[C@@H](O[C@@H]3O[C@H](COC(C)=O)[C@@H](O)[C@H](O)[C@H]3O)[C@]12C
Result: 3.89 µM

Q: Record: COC(C)(C)[C@@H](O)[C@H]1C[C@H](C)[C@@]2(CC[C@]3(C)[C@@H]2CC[C@@H]2[C@@]4(C)CC[C@@H](OC(C)=O)C(C)(C)[C@@H]4C[C@@H](O[C@@H]4O[C@H](COC(C)=O)[C@@H](O)[C@H](O)[C@H]4O)[C@]23C)O1
Result: 10 µM
